tested on: MS2 coat protein; assay: apparent KD of MS2 coat protein; designed switch direction (-1 OFF switch, 1 ON switch): -1; higher = weaker reporter binding; conditions: Eterna round: R95; input ligand: microRNA oligo, concentration not stated
Decision: apparent KD of MS2 coat protein compared against 40 nM; not below it gives Met, below it gives Not met.

AAUAAACAUGAGGAUCACCCAUGUCAGGAUAUCCAUUUGUUUUUGUUGGUUUUUUUUUGGAGAAGGGACGCUUA [Lollin - Alpha 1] (puzzle: Exclusion 1): Met
UCAAGCUUUAAGCGCGUGAACAUGAGGAUCACCCAUGUAUUUCGGGUUUUGGUUUUUUGUAUGGGUUCUUGUCUUAU [JR_SWV3TOV1_Sub096] (puzzle: Sensor v3, turn-off variant 1): Not met
AAAAAACAAGGAUAUACGAAGGAGGAUUAUCUUAAUUUUUGACAUGAGGAUCACCCAUGUAGAAGGUGUUAAAA [JR_Exclusion2_Sub009] (puzzle: Exclusion 2): Not met
GAAGCACAUGAGGAUCACCCAUGUAAGGAUAUAUUUCUGGUCCGGCCGGACCAGUACCGUAGAAGGUAUGUAAA [Excls-IIIa] (puzzle: Exclusion 1): Not met

----------
test system: K4 kissing-loop RNA reporter; test: apparent KD of K4 kissing-loop reporter; higher = weaker reporter binding; conditions: Eterna round: R107; input ligand: none;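 further: bound reporter read as fluorescence of individual clusters on recovered sequencing chips by microscopy, with normalized cluster intensities fitted with a binding model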
Listed next: entries and their corresponding apparent KD of K4 kissing-loop reporter.
endpoint: apparent KD of K4 kissing-loop reporter (nM)

AGGUUUUGAUUAGGAUAUGCACUGACGAUGAGAAUAUAGUGAUGUUAUAUACUACGAAUUAGUAGAGUAGAAGGGAUUGAGGUUU [SSFMNB.Z]: 414
UAUUAAUUGUCAGGAUAUCGUAAACGAGUGAUGUUCGUAUAUCGACGAUAGUCGAUUCUAUCUAAACGAGAAGGGACAUUAUUUA [JR_SSFMNB_Sub008]: 664
ACGUCCGGAUUGAUCGUGGGCAUGGUCGAUACCAGUAGUUUAAUCUACCCUUGGCAGCGACAUGAGUGAUGUUCAUGUGCGGUGA [#14 K4 Theophylline A Exclusion]: 188

----------
Listed next: entries and their corresponding apparent KD of MS2 coat protein.
tested on: MS2 coat protein; experiment: apparent KD of MS2 coat protein; designed switch direction (-1 OFF switch, 1 ON switch): 1; higher = weaker reporter binding; details: input ligand: microRNA oligo, concentration not stated
endpoint: apparent KD of MS2 coat protein (nM)

UUGCUCGUGUGAGGAUAUGCAGCCGUUUCGGCUGCAGAAGGUACUAUAAUACAUGAGGAUCACCCAUGUCUCUAUUAUUUAGUG [salish99_SSNG1_r04_926] (Eterna round: R96, puzzle: Same State NG 1): 19.2
GAGGGCGAAAGCGACAUGAGGAUCACCCAUGUCCUCGGAGGGCAGGAUAUCCGGCAAAAGCCGAAGGAGAAGGGUCGAAAAGAA [AK SSNG3-V2-38.1] (Eterna round: R96, puzzle: Same State NG 3): 26

----------
test system: MS2 coat protein; test: apparent KD of MS2 coat protein; designed switch direction (-1 OFF switch, 1 ON switch): -1; higher = weaker reporter binding; conditions: Eterna round: R95; input ligand: FMN 200 uM
Listed next: entries and their corresponding apparent KD of MS2 coat protein.
endpoint: apparent KD of MS2 coat protein (nM)

GAUGCUUCGGCAUCUACAAGCUUUUUGCUCGUCUUAUUAACAUGAGGAUCACCCAUGUCAAAGAGACCUCAUGUAUU [Sensor v3 - turn-off variant 2 - 4] (puzzle: Sensor v3, turn-off variant 2): 314
UUUAAUUUUUUUUUUUUACAAGCUUUUUGCUCGUCUUAUACAUGAGGAUCACCCAUGUGGGUAAAGGGUAAAUUAUC [JMF 80] (puzzle: Sensor v3, turn-off variant 2): 23
GCCAGAGCAGGAUAUCUAUAUUAUCACAUGAGGAUCACCCAUGUCCAGCGAAAGCUGGAGGGAGAAGGGCUCUGGC [Fiskers Ex 5 - 26] (puzzle: Exclusion 5): 55.7
GGUCAAGAACAGAUCCGCGCUGUCAUUGACCGCUCAUUUACAUGAGGAUCACCCAUGUUUUUUGCUUGUCUUGUUAC [Edrama] (puzzle: Sensor v3, turn-off variant 2): 19.6
UCACGUUAGGAGGAUAUCGAUCCAUUAGCGCGACGAGAAGGCCUGACAUGAGGAUCACCCAUGUGGUCAAACAA [Bexelaar] (puzzle: Exclusion 6): 52.1
